Experimental Details: binders of probe aHhip on microarray, primary screen, stem cell growth factor project, biochemical, small-molecule microarray, fluorescence 635/667 (AID 1087);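 note: score merges spot fluorescence at 667nm with spot signal to noise ratio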
Settings: higher = more signal
Assay Metric: composite z-score
Just the number, please, no unit after it.

Query CN1C(=O)C2C=CC(C(O)C3CCCCC3)N(N3CCCCC3)C2C1=O (centres undefined) yields composite z-score of 0.398

Query CCOC(=O)C[C@H]1[C@H](OC(=O)c2ccc(-c3ccccc3)cc2)[C@@H](NC(=O)c2ccc3ccccc3n2)c2cc(OCCCO)ccc2N1C(=O)c1ccccc1 yields composite z-score of 0.113

Query O=C1O[C@@H](c2ccccc2)[C@@H](c2ccccc2)N2[C@@H](c3ccccc3OCCO)[C@]3(C(=O)Nc4ccc(C#CCCO)cc43)[C@@H](C(=O)N3CCN(c4ncccn4)CC3)[C@H]12 yields composite z-score of -0.069

Query CCOC(=O)C[C@H]1[C@H](OC(=O)c2ccc(C(=O)c3ccccc3)cc2)[C@@H](NC(=O)c2ccc3ccccc3c2)c2cc(OCCCO)ccc2N1C(=O)c1ccccc1 yields composite z-score of -0.0672

Query COc1ccc([Si](C)(C)[C@@H]2[C@@H](CCO)O[C@]3(C(=O)N(Cc4cccc(N5C(=O)c6ccccc6Oc6ccccc65)c4)c4ccccc43)[C@H]2C)cc1 yields composite z-score of -0.134

---

Experimental Details: small-molecule microarray binders of probe aXIP, primary screen, biochemical, NeuroSMM set, 635/667 nm fluorescence (AID 1119);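 note: probe is the protein aXip251-270 applied at 1 µg/mL to compound-printed slides; binding of probe to printed compounds measured as 667 nm fluorescence plus signal to noise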
Settings: higher = more signal, called active from +8 up or from −8 down
Assay Metric: composite Z-score
Just the number, please, no unit after it.

# example entries with known answers
C[C@H]1C2=C3C(CC[C@H]4C(OCc5ccc(F)cc5C(F)(F)F)OC[C@](C)([C@@H]34)N(C(=O)OC(C)(C)C)C2)C2COC(=O)OCC21 (some centres not stated) : -0.0452
COCCOC(=O)N1C(=O)[C@@]2(c3ccccc31)[C@H](c1ccc(OCCO)cc1)N1[C@H](c3ccccc3)[C@H](c3ccccc3)OC(=O)[C@H]1[C@@H]2C(=O)Nc1nc2ccccc2s1 : 0.171
O=C1C[C@@](C(=O)NCC(F)(F)F)(c2ccc([N+](=O)[O-])cc2)[C@@H](c2ccc(CO)cc2)N1C1CCCCC1 : 0.391
COC(=O)C[C@H]1O[C@]2(C(=O)N(C)c3ccccc32)[C@@H](C)[C@@H]1[Si](C)(C)c1ccc(C)cc1 : 0.397
C=CCC(OC(C)=O)[C@@H]1[C@@H](N(Cc2ccc(-c3ccccc3)cc2)C(=O)c2cccc3ccccc23)c2cc(OCCCO)ccc2N1C(=O)Cc1ccc2ccccc2c1 (some centres not stated) : -0.277
COc1cc(CO)cc(I)c1O[C@H]1C=C(C(=O)NCCO)C[C@@H](N(CC2CCCCC2)C(=O)c2ccc(C(F)(F)F)cc2)[C@@H]1O : 0.527
C=CCC(OC(C)=O)[C@@H]1[C@@H](N(Cc2cc3ccccc3o2)C(=O)c2ccc(C)cc2)c2cc(OCCCO)ccc2N1C(=O)Cc1ccc2ccccc2c1 (some centres not stated) : 0.0991
CC1CC/C=C\[C@H]2OC34C=CCN(CCN5CCOCC5)C(=O)[C@H]3N(CCO)C(=O)[C@@H]4C2C(=O)O1 (some centres not stated) : 0.377
CCCCC(=C=CC[C@@H](O)c1ccc(OCCO)cc1)C[C@@H](O)COCc1ccccc1 : -0.114
CC(C)N1C(=O)[C@@]2(c3ccc([N+](=O)[O-])cc3)CC(=O)N(C3CCCCC3)[C@@H]2c2ccc(CO)cc21 : 0.633

Query CN(C)CCCNC(=O)[C@@]1(C)c2ccccc2C(=O)N(Cc2cc(C(F)(F)F)cc(C(F)(F)F)c2)[C@H]1c1ccc(CO)cc1 yields composite Z-score of 0.222

Query CC[C@@H]1[C@H]2C3C(=O)N(CC)C(=O)C3CC(=O)[C@H]2[C@H](c2ccc(C)cc2)N1S(=O)(=O)c1ccc(C)cc1 (some centres not stated) yields composite Z-score of -0.337

Query CC(CO)N1C(=O)[C@@H]2C3C(=O)OCCC/C=C\[C@H]3OC23C=CCN(Cn2nnc4ccccc42)C(=O)[C@@H]13 (some centres not stated) yields composite Z-score of 0.323

Query COCCCNC(=O)[C@@]1(Sc2ccc(C)cc2)CC(=O)N(Cc2cc(C(F)(F)F)cc(C(F)(F)F)c2)[C@@H]1c1ccc(CO)cc1 yields composite Z-score of 1.14

Query COC(=O)[C@H](Cc1ccccc1)N1CC(/C=C/C2CC2)=C[C@@H]1[C@@H](O)Cc1ccccc1 yields composite Z-score of -0.325

Query COc1ccc([Si](C)(C)[C@H]2[C@H](CCn3cc(CCO)nn3)O[C@@]3(C(=O)N(Cc4ccc(N5C(=O)c6cccc7cccc5c67)cc4)c4ccccc43)[C@@H]2C)cc1 yields composite Z-score of -0.777

Query COC(=O)[C@@]1(Cc2ccccc2)[C@H]2c3cc(C(=O)N4CCCC4)n(Cc4ccsc4Br)c3C[C@H]2CN1C(=O)c1ccccc1 yields composite Z-score of -0.314
